# Target Under Test: Bcr/Abl fusion protein (Homo sapiens)
# Sequence (P00519 whole entry, the tested form may be a part): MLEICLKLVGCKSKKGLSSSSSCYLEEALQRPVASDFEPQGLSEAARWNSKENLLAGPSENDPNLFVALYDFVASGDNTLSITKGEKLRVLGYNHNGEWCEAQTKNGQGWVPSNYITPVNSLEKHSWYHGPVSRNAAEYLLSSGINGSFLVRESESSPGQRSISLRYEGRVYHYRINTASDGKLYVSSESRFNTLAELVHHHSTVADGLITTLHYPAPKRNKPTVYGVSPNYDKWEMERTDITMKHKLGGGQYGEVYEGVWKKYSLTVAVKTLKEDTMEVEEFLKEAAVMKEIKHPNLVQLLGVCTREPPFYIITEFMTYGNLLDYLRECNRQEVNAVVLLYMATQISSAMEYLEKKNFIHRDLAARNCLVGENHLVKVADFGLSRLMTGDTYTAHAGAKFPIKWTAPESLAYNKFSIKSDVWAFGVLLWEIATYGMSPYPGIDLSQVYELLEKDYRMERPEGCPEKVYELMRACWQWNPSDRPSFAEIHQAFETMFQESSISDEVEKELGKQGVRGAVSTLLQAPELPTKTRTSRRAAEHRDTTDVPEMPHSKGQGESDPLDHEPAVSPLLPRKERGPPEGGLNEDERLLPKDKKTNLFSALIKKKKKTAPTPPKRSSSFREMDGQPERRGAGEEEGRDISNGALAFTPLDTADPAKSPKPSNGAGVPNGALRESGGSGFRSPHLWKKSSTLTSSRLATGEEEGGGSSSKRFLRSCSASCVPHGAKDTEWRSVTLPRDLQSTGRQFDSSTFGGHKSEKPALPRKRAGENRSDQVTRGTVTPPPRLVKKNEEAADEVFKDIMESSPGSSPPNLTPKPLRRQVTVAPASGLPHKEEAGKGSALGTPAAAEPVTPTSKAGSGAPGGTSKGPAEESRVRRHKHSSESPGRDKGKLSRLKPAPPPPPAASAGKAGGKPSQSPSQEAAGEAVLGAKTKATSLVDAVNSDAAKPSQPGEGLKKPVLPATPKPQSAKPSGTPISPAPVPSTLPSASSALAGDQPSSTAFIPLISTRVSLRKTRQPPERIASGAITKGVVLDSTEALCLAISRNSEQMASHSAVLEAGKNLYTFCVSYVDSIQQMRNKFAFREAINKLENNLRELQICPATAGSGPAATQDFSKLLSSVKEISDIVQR
# Sequence (P11274 whole entry, further chain, the tested form may be a part): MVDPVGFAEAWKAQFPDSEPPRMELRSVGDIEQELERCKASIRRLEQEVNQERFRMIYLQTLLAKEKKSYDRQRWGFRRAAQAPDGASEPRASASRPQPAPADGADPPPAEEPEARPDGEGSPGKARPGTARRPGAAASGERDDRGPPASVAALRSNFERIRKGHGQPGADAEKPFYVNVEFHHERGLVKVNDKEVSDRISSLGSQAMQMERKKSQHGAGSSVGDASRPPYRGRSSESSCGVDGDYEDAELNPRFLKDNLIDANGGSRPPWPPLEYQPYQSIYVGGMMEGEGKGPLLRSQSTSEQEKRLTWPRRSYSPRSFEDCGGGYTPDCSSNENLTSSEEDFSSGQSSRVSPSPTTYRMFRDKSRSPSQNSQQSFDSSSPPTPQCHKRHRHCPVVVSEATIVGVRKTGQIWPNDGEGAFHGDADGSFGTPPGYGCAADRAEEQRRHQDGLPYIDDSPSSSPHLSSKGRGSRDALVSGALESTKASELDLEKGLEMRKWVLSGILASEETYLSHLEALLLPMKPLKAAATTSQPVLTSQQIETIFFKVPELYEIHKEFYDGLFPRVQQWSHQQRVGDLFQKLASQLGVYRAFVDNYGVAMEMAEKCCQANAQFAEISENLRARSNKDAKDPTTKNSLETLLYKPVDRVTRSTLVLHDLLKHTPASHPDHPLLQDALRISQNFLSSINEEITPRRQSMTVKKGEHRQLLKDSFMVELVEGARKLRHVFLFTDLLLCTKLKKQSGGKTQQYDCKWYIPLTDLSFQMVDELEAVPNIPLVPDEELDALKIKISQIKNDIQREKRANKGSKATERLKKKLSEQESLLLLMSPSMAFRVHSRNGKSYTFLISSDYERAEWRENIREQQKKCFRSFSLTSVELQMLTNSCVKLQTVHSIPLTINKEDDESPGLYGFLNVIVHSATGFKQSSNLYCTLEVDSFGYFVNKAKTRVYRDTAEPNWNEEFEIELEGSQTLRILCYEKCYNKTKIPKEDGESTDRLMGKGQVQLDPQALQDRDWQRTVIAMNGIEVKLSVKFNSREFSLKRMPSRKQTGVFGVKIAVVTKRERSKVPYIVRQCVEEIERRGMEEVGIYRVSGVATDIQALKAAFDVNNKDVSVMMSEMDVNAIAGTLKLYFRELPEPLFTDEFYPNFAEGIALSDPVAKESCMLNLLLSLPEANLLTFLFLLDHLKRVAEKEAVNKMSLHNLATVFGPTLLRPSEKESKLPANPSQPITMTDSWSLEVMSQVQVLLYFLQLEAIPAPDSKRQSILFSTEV
# Test Details: Antiproliferative activity against human BCR-ABL positive chronic myeloid leukemia K562 cell line
Measured Endpoint: IC50 (µM)

As a guide, the following entries are already answered.
Smi | Target Under Test | Numeric Readout
CN1CCN(CCc2ccc(NC(=O)c3cc(-c4ccc5c(c4)OCO5)cnc3O)cc2)CC1 | Bcr/Abl fusion protein (Homo sapiens) | 9.5
CN1CCN(CCCc2ccc(NC(=O)c3cc(-c4ccc5c(c4)OCO5)cnc3O)cc2)CC1 | Bcr/Abl fusion protein (Homo sapiens) | 14.6

A. CN1CCN(Cc2ccc(NC(=O)c3cc(-c4ccc5c(c4)OCO5)cnc3O)cc2)CC1
B. CN1CCN(c2ccc(NC(=O)c3cc(-c4ccc5c(c4)OCO5)c[nH]c3=O)cc2)CC1
QUERY: Pick one: A or B . Which has the bigger IC50 number? Please reply using the label of the selected record.
RESULT: A
(A: 12.9 µM, B: 3.8 µM)
